Target: orexin 2 receptors (Homo sapiens, UniProt O43614)
Sequence (O43614 whole entry): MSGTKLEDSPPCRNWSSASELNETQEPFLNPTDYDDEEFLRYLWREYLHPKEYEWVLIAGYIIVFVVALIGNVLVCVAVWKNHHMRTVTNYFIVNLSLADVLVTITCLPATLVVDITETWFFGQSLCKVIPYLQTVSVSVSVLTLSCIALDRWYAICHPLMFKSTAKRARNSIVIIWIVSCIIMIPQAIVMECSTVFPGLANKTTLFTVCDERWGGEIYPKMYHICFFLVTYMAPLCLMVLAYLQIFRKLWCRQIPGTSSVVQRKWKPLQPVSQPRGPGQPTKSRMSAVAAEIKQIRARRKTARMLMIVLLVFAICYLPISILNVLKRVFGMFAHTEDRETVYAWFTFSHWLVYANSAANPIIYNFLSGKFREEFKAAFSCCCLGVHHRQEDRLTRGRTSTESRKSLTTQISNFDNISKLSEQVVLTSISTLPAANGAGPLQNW
Assay: measurement of intracellular calcium (FLIPR), antagonist test against orexin B
Format: cell-based
Conditions: 30 minutes preincubation before addition of 0.25 nM orexin B, Fluo-4 AM, read-out: Measurement of [Ca^2+]i IC50 OX 2 - FLIPR
Documented log10 IC50 across a set of compounds
value-type: log10 IC50 (log10 of the value in nM)

1. CNC(=O)CN(c1ccc(Cl)cc1C(O)c1ccccc1)S(=O)(=O)c1ccc(OC)c(OC)c1 (stereo not drawn)	1.00
2. CNC(=O)CN(c1ccc(Cl)cc1N(C)c1ccccc1)S(=O)(=O)c1ccc(OC)c(OC)c1	1.81
3. COc1cccc(S(=O)(=O)N(CC(N)=O)c2ccc(Cl)cc2C(O)c2ccccc2Cl)c1 (stereo not drawn)	1.41
4. COc1ccc(S(=O)(=O)N(CC(N)=O)c2ccc(Cl)cc2C(O)c2cccc(Cl)c2)cc1OC (stereo not drawn)	1.73
5. COc1ccc(S(=O)(=O)N(CC(N)=O)c2cc(N(C)C)ccc2Cc2c(F)cccc2F)cc1OC	0.85
6. CCOC(=O)CN(c1ccc(Cl)cc1C(O)c1ccccc1Cl)S(=O)(=O)c1ccc(OC)c(OC)c1 (stereo not drawn)	0.70
